Ref: patent US9802997B2

- target entity: HLA-A*02:01 (Homo sapiens, UniProt P04439, D140Y/D185E/D98H/E176V/E277Q/G131W/G231S/I119V/I121R/I166T/I218V/L300P/L318F/N151K/N90K/P208A/P217A/Q86G/Q94H/R138H/R169H/T345S)
- method notes: MHC binding assay (UV-ligand exchange, beta2m ELISA)
- condition: binding to HLA-A*02:01, β2m ELISA
experimental readout: Peptide exchange (MHC class I binding score, peptide exchange yield)

> print(dat)
                                  substance           result
1  116 (ALLSSVAEA; listed as Homo sapiens) [compound 116]   ++ (≧20% = ++)
2  10 (QLIEKNWLL; listed as Homo sapiens) [compound 10]  +++ (≧50 = +++)
3  90 (AILNVDEKNQV; listed as Homo sapiens) [compound 90]   ++ (≧20% = ++)
4  23 (ALLSPLSLA; listed as Homo sapiens) [compound 23]  +++ (≧50 = +++)
5  109 (ILGSFELQL; listed as Homo sapiens) [compound 109]  +++ (≧50 = +++)

I would be grateful if you could share the reported Peptide exchange (MHC class I binding score, peptide exchange yield) for 93 (RLYGYFHDA; listed as Homo sapiens) [compound 93] . ++ (≧20% = ++)

I would be grateful if you could share the reported Peptide exchange (MHC class I binding score, peptide exchange yield) for 255 (FLMKNSDLYGA; listed as Homo sapiens) [compound 255] . +++ (≧50 = +++)

I would be grateful if you could share the reported Peptide exchange (MHC class I binding score, peptide exchange yield) for 167 (LVVDEGSLVSV; listed as Homo sapiens) [compound 167] . +++ (≧50 = +++)

I would be grateful if you could share the reported Peptide exchange (MHC class I binding score, peptide exchange yield) for 105 (AMLASQTEA; listed as Homo sapiens) [compound 105] . ++ (≧20% = ++)

I would be grateful if you could share the reported Peptide exchange (MHC class I binding score, peptide exchange yield) for 168 (VIFEGEPMYL; listed as Homo sapiens) [compound 168] . +++ (≧50 = +++)

* * *

- target entity: HLA-A*02:01 (Homo sapiens, UniProt P04439, D140Y/D185E/D98H/E176V/E277Q/G131W/G231S/I119V/I121R/I166T/I218V/L300P/L318F/N151K/N90K/P208A/P217A/Q86G/Q94H/R138H/R169H/T345S)
- method notes: MHC binding assay (UV-ligand exchange, beta2m ELISA)
- condition: binding to HLA-A*02:01, β2m ELISA
experimental readout: Peptide exchange (MHC class I binding score, peptide exchange yield)

> print(dat)
                                  substance           result
1  179 (TLGEIIKGV; listed as Homo sapiens) [compound 179]  +++ (≧50 = +++)
2  181 (LLWAPTAQA; listed as Homo sapiens) [compound 181]  +++ (≧50 = +++)
3  247 (NLLIDDKGTIKL; listed as Homo sapiens) [compound 247]   ++ (≧20% = ++)
4  200 (IMPTFDLTKV; listed as Homo sapiens) [compound 200]  +++ (≧50 = +++)
5  281 (LLLESDPKVYSL; listed as Homo sapiens) [compound 281]   ++ (≧20% = ++)
6  157 (ILQDGQFLV; listed as Homo sapiens) [compound 157]   ++ (≧20% = ++)

I would be grateful if you could share the reported Peptide exchange (MHC class I binding score, peptide exchange yield) for 239 (VIIKGLEEITV; listed as Homo sapiens) [compound 239] . +++ (≧50 = +++)

I would be grateful if you could share the reported Peptide exchange (MHC class I binding score, peptide exchange yield) for 149 (NMADGQLHQV; listed as Homo sapiens) [compound 149] . ++ (≧20% = ++)

I would be grateful if you could share the reported Peptide exchange (MHC class I binding score, peptide exchange yield) for 177 (ALINVLNAL; listed as Homo sapiens) [compound 177] . +++ (≧50 = +++)
